target: T1, 006 PSMA Fab; assay: clonal phage ELISA; biotinylated PSMA Fab on neutravidin plate, anti-M13-HRP detection
T1 construct: Biotinylated and captured on neutravidin-coated plates in the phage ELISA; also called Anti-PSMA Fab
REPORTED_PROPERTY: phage binding ELISA signal
Numbers only.

Check out these entries, answers already filled in.
>  <BINDER>
FYKWCTPEWMCTVN [Phage-2384]

>  <phage binding ELISA signal>
1.38

$$$$
>  <BINDER>
HDKLCIPLWMCDGV [Phage-2377]

>  <phage binding ELISA signal>
1.39

$$$$
>  <BINDER>
DAKWCIPDWMCYGF [Phage-2387]

>  <phage binding ELISA signal>
1.38

$$$$
>  <BINDER>
LHKWCTPAWMCEVP [Phage-2379]

>  <phage binding ELISA signal>
1.39

$$$$

Prompt: I am curious: what phage binding ELISA signal value has been reported for TIKWCTPPWMCIMN [Phage-2388] ?
Response: 1.38
